biological target: UniProt P08581; conditions: 293t
Sequence (P08581 25-1390 limits assumed): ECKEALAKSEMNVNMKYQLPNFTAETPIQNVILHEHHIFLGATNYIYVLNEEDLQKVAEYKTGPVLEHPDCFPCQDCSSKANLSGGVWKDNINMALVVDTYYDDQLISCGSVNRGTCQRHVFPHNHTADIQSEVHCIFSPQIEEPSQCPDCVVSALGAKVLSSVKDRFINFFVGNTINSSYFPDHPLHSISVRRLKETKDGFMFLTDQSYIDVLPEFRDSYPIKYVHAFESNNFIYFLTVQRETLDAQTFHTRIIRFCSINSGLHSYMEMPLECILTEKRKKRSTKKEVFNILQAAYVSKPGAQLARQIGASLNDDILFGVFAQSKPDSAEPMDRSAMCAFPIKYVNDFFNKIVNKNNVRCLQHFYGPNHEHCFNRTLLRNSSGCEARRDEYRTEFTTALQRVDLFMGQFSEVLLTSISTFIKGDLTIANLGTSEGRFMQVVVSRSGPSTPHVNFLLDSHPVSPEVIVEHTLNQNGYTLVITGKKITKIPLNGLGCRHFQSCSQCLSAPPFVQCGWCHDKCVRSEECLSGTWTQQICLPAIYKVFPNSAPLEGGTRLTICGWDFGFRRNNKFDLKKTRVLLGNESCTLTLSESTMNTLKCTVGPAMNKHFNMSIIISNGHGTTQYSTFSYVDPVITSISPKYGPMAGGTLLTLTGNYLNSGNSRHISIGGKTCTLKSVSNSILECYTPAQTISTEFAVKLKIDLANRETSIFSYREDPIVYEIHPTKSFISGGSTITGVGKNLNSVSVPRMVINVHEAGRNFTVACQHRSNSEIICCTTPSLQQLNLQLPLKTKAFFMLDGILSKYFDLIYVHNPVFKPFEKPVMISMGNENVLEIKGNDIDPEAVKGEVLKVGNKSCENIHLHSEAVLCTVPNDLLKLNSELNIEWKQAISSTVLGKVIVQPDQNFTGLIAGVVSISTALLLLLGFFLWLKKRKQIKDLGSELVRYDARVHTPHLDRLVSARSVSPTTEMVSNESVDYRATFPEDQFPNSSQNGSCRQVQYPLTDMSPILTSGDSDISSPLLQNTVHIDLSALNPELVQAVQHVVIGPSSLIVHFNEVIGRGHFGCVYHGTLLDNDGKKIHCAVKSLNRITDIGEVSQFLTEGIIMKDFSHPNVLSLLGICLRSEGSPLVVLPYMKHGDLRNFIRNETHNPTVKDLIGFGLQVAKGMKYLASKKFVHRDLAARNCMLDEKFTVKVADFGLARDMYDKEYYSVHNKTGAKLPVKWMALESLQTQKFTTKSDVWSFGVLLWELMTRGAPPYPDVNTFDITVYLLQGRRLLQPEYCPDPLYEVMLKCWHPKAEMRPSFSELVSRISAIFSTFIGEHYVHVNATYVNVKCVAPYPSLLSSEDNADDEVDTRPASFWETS
Description: Inhibition of TPR-fused Met phosphorylation expressed in human 293T cells by ELISA
// values below are reported IC50
All answers are understood in nM, so give the number only.

molecule: Cn1cnc(-c2cc3nccc(Oc4ccc(NC(=O)C5CCN(c6ccccc6)C5=O)cc4F)c3s2)c1 (stereo not drawn)
experimentalSystem: UniProt P08581
IC50, nM: 370

molecule: Cn1cnc(-c2cc3nccc(Oc4ccc(NC(=O)C5(C)CCN(c6ccccc6)C5=O)cc4F)c3s2)c1 (stereo not drawn)
experimentalSystem: UniProt P08581
IC50, nM: 1000

molecule: CNC(=O)N1CCN(Cc2ccc(-c3cc4nccc(Oc5ccc(NC(=O)N6CCN(c7ccccc7)C6=O)cc5F)c4s3)cc2)CC1
experimentalSystem: UniProt P08581
IC50, nM: 80

molecule: CN1CCN(Cc2ccc(-c3cc4nccc(Oc5ccc(NC(=O)N6CCN(c7ccccc7)C6=O)cc5F)c4s3)cc2)CC1
experimentalSystem: UniProt P08581
IC50, nM: 250

molecule: Cn1ccnc1-c1cc2nccc(Oc3ccc(NC(=O)N4CCN(c5ccccc5)C4=O)cc3F)c2s1
experimentalSystem: UniProt P08581
IC50, nM: 120

Form: Entry = `CC(=O)c1cccc(-c2cc3nccc(Oc4ccc(NC(=O)N5CCN(c6ccccc6)C5=O)cc4F)c3s2)c1` | System = UniProt P08581 | IC50 = ____
270

Next: `Cn1cnc(-c2cc3nccc(Oc4ccc(NC(=O)C5(C(=O)Nc6ccccc6)CC5)cc4F)c3s2)c1`
60

Next: `CCn1cnc(-c2cc3nccc(Oc4ccc(NC(=O)N5CCN(c6ccc(F)cc6)C5=O)cc4F)c3s2)c1`
50

###

// values below are reported IC50
biological target: Hepatocyte growth factor receptor (Homo sapiens, UniProt P08581); experiment: biochemical
Sequence (P08581 whole entry): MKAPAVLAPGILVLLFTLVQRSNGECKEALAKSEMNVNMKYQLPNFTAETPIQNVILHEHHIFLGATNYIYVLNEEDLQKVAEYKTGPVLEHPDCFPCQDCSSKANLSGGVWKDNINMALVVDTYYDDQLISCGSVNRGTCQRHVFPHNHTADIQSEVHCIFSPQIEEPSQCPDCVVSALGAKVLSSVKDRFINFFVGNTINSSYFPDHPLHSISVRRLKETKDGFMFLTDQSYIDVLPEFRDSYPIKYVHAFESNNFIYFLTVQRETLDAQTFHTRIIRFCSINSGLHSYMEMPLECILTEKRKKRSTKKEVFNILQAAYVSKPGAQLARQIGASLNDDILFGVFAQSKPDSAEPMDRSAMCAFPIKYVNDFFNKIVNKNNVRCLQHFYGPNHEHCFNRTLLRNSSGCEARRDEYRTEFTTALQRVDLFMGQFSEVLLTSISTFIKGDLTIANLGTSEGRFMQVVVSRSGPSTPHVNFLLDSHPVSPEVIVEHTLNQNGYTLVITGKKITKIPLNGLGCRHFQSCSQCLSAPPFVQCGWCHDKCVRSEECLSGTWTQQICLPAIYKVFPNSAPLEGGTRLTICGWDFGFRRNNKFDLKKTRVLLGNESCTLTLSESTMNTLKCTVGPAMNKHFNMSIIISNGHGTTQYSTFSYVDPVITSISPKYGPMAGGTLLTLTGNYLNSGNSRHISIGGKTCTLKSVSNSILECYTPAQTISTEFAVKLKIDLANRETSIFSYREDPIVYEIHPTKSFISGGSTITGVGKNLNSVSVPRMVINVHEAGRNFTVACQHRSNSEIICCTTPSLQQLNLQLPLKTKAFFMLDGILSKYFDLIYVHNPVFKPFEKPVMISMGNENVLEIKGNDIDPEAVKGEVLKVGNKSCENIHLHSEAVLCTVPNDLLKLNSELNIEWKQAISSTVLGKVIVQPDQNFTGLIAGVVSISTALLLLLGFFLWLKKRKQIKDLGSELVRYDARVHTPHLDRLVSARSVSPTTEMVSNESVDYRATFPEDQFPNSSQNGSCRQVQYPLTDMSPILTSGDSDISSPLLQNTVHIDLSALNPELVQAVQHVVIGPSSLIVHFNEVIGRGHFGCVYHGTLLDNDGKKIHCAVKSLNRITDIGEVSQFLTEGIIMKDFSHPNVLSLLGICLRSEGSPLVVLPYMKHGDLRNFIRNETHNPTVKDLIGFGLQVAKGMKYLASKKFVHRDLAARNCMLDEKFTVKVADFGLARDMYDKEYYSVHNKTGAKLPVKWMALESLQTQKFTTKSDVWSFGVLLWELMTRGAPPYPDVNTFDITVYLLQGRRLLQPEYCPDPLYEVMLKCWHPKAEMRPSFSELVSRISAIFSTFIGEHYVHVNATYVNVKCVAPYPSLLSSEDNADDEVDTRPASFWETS
Description: Inhibition of GST-fused recombinant c-Met catalytic domain expressed in baculovirus-infected Trichoplusia ni Hi5 cells after 30 mins by DELFIA assay
All answers are understood in nM, so give the number only.

compound: CN(C)CCn1cnc(-c2cc3nccc(Oc4ccc(NC(=O)N5CCN(c6ccccc6)C5=O)cc4F)c3s2)c1
readoutUnit: nM
measurement: 34

compound: Cn1cnc(-c2cc3nccc(Oc4ccc(NC(=O)C5(C(=O)Nc6ccccc6)CC5)cc4F)c3s2)c1
readoutUnit: nM
measurement: 28

compound: Cn1ccnc1-c1cc2nccc(Oc3ccc(NC(=O)N4CCN(c5ccccc5)C4=O)cc3F)c2s1
readoutUnit: nM
measurement: 26

compound: CN(C)[C@H]1CCN(C(=O)c2cc3nccc(Oc4ccc(NC(=O)N5CCN(c6ccccc6)C5=O)cc4F)c3s2)C1
readoutUnit: nM
measurement: 42

compound: Cn1cnc(-c2cc3nccc(Oc4ccc(NC(=O)N5CCN(c6ccccc6)C5=S)cc4F)c3s2)c1
readoutUnit: nM
measurement: 2000

Name the reported IC50 value associated with the compound `O=C(Nc1ccc(Oc2ccnc3cc(-c4cn(CCN5CCCC5)cn4)sc23)c(F)c1)N1CCN(c2ccccc2)C1=O`
35

Next: `CN1CC=C(c2cc3nccc(Oc4ccc(NC(=O)N5CCN(c6ccccc6)C5=O)cc4F)c3s2)CC1`
33

Next: Cn1cnc(-c2cc3nccc(Oc4ccc(NC(=O)C5(C)CCN(c6ccccc6)C5=O)cc4F)c3s2)c1 (centres undefined)
67

Next: `CCn1cnc(-c2cc3nccc(Oc4ccc(NC(=O)N5CCN(c6ccccc6)C5=O)cc4F)c3s2)c1`
25

Next: `CCn1cnc(-c2cc3nccc(Oc4ccc(NC(=O)N5CCN(c6ccccc6OC)C5=O)cc4F)c3s2)c1`
26

Next: `CCn1cnc(-c2cc3nccc(Oc4ccc(NC(=O)N5CCN(c6ccccc6F)C5=O)cc4F)c3s2)c1`
21

Next: CC(C)n1cnc(-c2cc3nccc(Oc4ccc(NC(=O)C5CCN(c6ccccc6)C5=O)cc4F)c3s2)c1 (centres undefined)
39

Next: Cn1cnc(-c2cc3nccc(Oc4ccc(NC(=O)C5CCN(c6ccccc6)C5=O)cc4F)c3s2)c1 (centres undefined)
35

Next: `Cn1cnc(-c2cc3nccc(Oc4ccc(NC(=O)CC(=O)Nc5ccccc5)cc4F)c3s2)c1`
28

Next: `CN(C(=O)CC(=O)Nc1ccc(Oc2ccnc3cc(-c4cn(C)cn4)sc23)c(F)c1)c1ccccc1`
43

Next: `Cn1cnc(-c2cc3nccc(Oc4ccc(NC(=O)NC(=O)Cc5ccccc5)cc4F)c3s2)c1`
25

Next: CC(C)n1cnc(-c2cc3nccc(Oc4ccc(NC(=O)C5CC(=O)N(c6ccccc6)C5)cc4F)c3s2)c1 (centres undefined)
300

Next: `Cn1cnc(-c2cc3nccc(Oc4ccc(NC(=S)N5CCN(c6ccccc6)C5=O)cc4F)c3s2)c1`
24

Next: `CN(C(=O)C1(C(=O)Nc2ccc(Oc3ccnc4cc(-c5cn(C)cn5)sc34)c(F)c2)CC1)c1ccccc1`
1000

###

tested on: HCT-116; test: Antiproliferative activity against c-Met-independent human HCT116 cells after 72 hrs by MTT assay; format: functional, cell-based; settings: HCT-116, 72 h
measurementKind: pIC50
Scale: negative log10 of molar concentration, which is what pIC50 denotes.

Name the reported pIC50 value associated with the compound `CCn1cnc(-c2cc3nccc(Oc4ccc(NC(=O)N5CCN(c6ccc(F)cc6)C5=O)cc4F)c3s2)c1`
4.89

###

biological target: Hepatocyte growth factor receptor (Homo sapiens); details: 293t
// values below are reported log10 IC50
Note the log scale: values are log10 of IC50 expressed in nM.

Sample answers from the record:
compound: CCn1cnc(-c2cc3nccc(Oc4ccc(NC(=O)N5CCN(c6ccccc6F)C5=O)cc4F)c3s2)c1
log10 IC50: 2.00
//
compound: CCn1ccnc1-c1cc2nccc(Oc3ccc(NC(=O)N4CCN(c5ccccc5)C4=O)cc3F)c2s1
log10 IC50: 2.15
//
compound: O=C(Nc1ccc(Oc2ccnc3cc(-c4cn(CCN5CCCC5)cn4)sc23)c(F)c1)N1CCN(c2ccccc2)C1=O
log10 IC50: 2.51
//
compound: CN(C)[C@H]1CCN(C(=O)c2cc3nccc(Oc4ccc(NC(=O)N5CCN(c6ccccc6)C5=O)cc4F)c3s2)C1
log10 IC50: 2.36
//
compound: CN1CC=C(c2cc3nccc(Oc4ccc(NC(=O)N5CCN(c6ccccc6)C5=O)cc4F)c3s2)CC1
log10 IC50: 2.48
//
compound: CCn1cnc(-c2cc3nccc(Oc4ccc(NC(=O)N5CCN(c6ccccc6OC)C5=O)cc4F)c3s2)c1
log10 IC50: 1.78
//
compound: Cn1cnc(-c2cc3nccc(Oc4ccc(NC(=S)N5CCN(c6ccccc6)C5=O)cc4F)c3s2)c1
log10 IC50: 1.90
//
compound: CCn1cnc(-c2cc3nccc(Oc4ccc(NC(=O)N5CCN(c6ccccc6)C5=O)cc4F)c3s2)c1
log10 IC50: 1.60

Name the reported log10 IC50 value associated with the compound `CN(C(=O)CC(=O)Nc1ccc(Oc2ccnc3cc(-c4cn(C)cn4)sc23)c(F)c1)c1ccccc1`
2.20

Next: `CN(C)CCn1cnc(-c2cc3nccc(Oc4ccc(NC(=O)N5CCN(c6ccccc6)C5=O)cc4F)c3s2)c1`
1.78

Next: `CN(C(=O)C1(C(=O)Nc2ccc(Oc3ccnc4cc(-c5cn(C)cn5)sc34)c(F)c2)CC1)c1ccccc1`
3.16

Next: CC(C)n1cnc(-c2cc3nccc(Oc4ccc(NC(=O)C5CCN(c6ccccc6)C5=O)cc4F)c3s2)c1 (configuration not stated)
2.32

Next: `O=C(Nc1ccc(Oc2ccnc3cc(-c4cn(CCCN5CCCC5)cn4)sc23)c(F)c1)N1CCN(c2ccccc2)C1=O`
2.48

Next: `O=C(Nc1ccc(Oc2ccnc3cc(-c4ccc(CN5CCNCC5)cc4)sc23)c(F)c1)N1CCN(c2ccccc2)C1=O`
2.62

Next: `Cn1cnc(-c2cc3nccc(Oc4ccc(NC(=O)CC(=O)Nc5ccccc5)cc4F)c3s2)c1`
2.49

Next: `CN1CCN(CCN(C)Cc2ccc(-c3cc4nccc(Oc5ccc(NC(=O)N6CCN(c7ccccc7)C6=O)cc5F)c4s3)cc2)CC1`
2.92

###

experiment: Bioavailability in rat at 4.28 to 4.98 mg/kg, po; assay type: ADME, organism-based; settings: in vivo
// values below are reported bioavailability
All answers are understood in %, so give the number only.

molecule: Cn1cnc(-c2cc3nccc(Oc4ccc(NC(=O)C5CCN(c6ccccc6)C5=O)cc4F)c3s2)c1 (stereo not drawn)
readoutUnit: %
bioavailability: 14

molecule: CCn1cnc(-c2cc3nccc(Oc4ccc(NC(=O)N5CCN(c6ccc(F)cc6)C5=O)cc4F)c3s2)c1
readoutUnit: %
bioavailability: 37

Let us examine a further case.
Name the reported bioavailability value associated with the molecule `Cn1cnc(-c2cc3nccc(Oc4ccc(NC(=O)N5CCN(c6ccccc6)C5=O)cc4F)c3s2)c1`
13

###

// values below are reported pIC50
target: UniProtKB P35968; assay: Inhibition of GST-fused recombinant VGFR2 catalytic domain expressed in baculovirus-infected Sf9 cells after 10 mins by DELFIA assay
Sequence (P35968 whole entry, the tested form may be a part): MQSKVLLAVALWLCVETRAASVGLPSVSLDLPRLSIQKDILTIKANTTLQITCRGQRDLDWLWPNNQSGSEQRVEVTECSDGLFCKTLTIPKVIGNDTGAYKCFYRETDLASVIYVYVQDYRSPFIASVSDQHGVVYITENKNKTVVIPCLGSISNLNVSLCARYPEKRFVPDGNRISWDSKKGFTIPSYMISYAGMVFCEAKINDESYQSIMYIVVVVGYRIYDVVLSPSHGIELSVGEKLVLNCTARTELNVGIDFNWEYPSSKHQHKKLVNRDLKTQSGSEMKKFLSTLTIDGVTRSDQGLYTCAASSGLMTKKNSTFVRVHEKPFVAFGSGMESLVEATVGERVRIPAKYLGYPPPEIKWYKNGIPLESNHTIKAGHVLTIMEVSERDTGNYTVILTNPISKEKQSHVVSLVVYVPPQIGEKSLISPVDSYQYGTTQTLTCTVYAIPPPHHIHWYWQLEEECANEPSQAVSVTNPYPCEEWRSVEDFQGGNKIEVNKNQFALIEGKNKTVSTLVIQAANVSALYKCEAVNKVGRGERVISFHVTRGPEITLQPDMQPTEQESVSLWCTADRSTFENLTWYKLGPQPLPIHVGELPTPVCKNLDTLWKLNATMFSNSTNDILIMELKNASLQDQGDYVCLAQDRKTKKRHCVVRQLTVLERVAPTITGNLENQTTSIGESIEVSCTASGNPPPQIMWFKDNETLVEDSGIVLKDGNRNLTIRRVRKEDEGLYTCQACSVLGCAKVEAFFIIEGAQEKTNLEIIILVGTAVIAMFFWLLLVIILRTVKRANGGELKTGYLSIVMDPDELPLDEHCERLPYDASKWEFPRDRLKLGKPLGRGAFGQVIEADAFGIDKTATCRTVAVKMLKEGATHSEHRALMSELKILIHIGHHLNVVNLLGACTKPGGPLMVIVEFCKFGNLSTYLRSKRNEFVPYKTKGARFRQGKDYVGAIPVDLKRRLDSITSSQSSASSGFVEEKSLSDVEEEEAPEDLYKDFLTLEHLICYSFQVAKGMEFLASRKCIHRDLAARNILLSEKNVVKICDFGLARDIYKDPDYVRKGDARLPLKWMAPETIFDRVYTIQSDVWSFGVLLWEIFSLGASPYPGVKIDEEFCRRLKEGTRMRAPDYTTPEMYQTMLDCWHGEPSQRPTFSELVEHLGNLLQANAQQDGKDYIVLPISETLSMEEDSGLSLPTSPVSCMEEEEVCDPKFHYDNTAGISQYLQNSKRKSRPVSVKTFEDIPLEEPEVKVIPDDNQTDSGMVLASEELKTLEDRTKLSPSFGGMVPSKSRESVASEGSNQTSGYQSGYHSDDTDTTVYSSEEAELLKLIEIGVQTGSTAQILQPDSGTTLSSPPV
Scale: negative log10 of molar concentration, which is what pIC50 denotes.

compound: Cn1cnc(-c2cc3nccc(Oc4ccc(NC(=O)CC(=O)Nc5ccccc5)cc4F)c3s2)c1
pIC50: 7.82
//
compound: Cn1cnc(-c2cc3nccc(Oc4ccc(NC(=O)C5(C)CCN(c6ccccc6)C5=O)cc4F)c3s2)c1 (stereo not drawn)
pIC50: 6.64
//
compound: Cn1cnc(-c2cc3nccc(Oc4ccc(NC(=S)NC(=O)Cc5ccccc5)cc4F)c3s2)c1
pIC50: 7.59

Name the reported pIC50 value associated with the compound `O=C(Nc1ccc(Oc2ccnc3cc(-c4ccc(CN5CCNCC5)cc4)sc23)c(F)c1)N1CCN(c2ccccc2)C1=O`
7.96

Next: `CCn1cnc(-c2cc3nccc(Oc4ccc(NC(=O)N5CCN(c6ccccc6)C5=O)cc4F)c3s2)c1`
7.92

Next: `Cn1ccnc1-c1cc2nccc(Oc3ccc(NC(=O)N4CCN(c5ccccc5)C4=O)cc3F)c2s1`
7.51

Next: `Cn1cnc(-c2cc3nccc(Oc4ccc(NC(=O)N5CCN(c6ccccc6)C5=S)cc4F)c3s2)c1`
5.74

Next: `CCn1ccnc1-c1cc2nccc(Oc3ccc(NC(=O)N4CCN(c5ccccc5)C4=O)cc3F)c2s1`
7.59
